Test system: WI-38 VA13
test: Growth inhibition of human VA13 cells
Assay type: functional, cell-based
The threshold is 90 µM. Values of IC50 beneath it are tagged label 1; values meeting or exceeding it are tagged label 0.

molecule	label
C=C1[C@@H](OC(C)=O)CC[C@@]2(C)C[C@H](O)C3=C(C)C[C@H](OC(C)=O)[C@@H]([C@@H](OC(C)=O)[C@H]12)C3(C)C	label 1
C=C1[C@@H](OC(C)=O)CC[C@@]2(C)C[C@H](OC(=O)/C=C/c3ccccc3)C3=C(C)C[C@H](O)[C@@H]([C@@H](OC(C)=O)[C@H]12)C3(C)C	label 1
C=C1[C@@H](OC(C)=O)C[C@H](OC(=O)/C=C/c2ccccc2)[C@@]2(C)C[C@H](OC(C)=O)C3=C(C)C[C@H](OC(=O)C(C)CC)[C@@H]([C@@H](OC(C)=O)[C@H]12)C3(C)C (stereo partly specified)	label 0
C=C1[C@@H](OC(C)=O)CC[C@@]2(C)C[C@H](OC(C)=O)C3=C(C)C[C@H](OC(=O)CCCC)[C@@H]([C@@H](OC(C)=O)[C@H]12)C3(C)C	label 1
C=C1[C@@H](OC(C)=O)CC[C@@]2(C)C[C@H](OC(C)=O)C3=C(C)CC[C@@H]([C@@H](OC(C)=O)[C@H]12)C3(C)C	label 1
C=C1[C@@H](OC(C)=O)CC[C@@]2(C)C[C@H](OC(C)=O)C3=C(C)C[C@H](OC(C)=O)[C@@H]([C@@H](O)[C@H]12)C3(C)C	label 0
C=C1[C@@H](O)CC[C@@]2(C)C[C@H](OC(C)=O)C3=C(C)C[C@H](OC(C)=O)[C@@H]([C@@H](OC(C)=O)[C@H]12)C3(C)C	label 0
C=C1[C@@H](OC(C)=O)CC[C@@]2(C)C[C@H](OC(C)=O)C3=C(C)C[C@H](OC(=O)CC)[C@@H]([C@@H](OC(C)=O)[C@H]12)C3(C)C	label 0
C=C1[C@@H](OC(C)=O)CC[C@@]2(C)C[C@H](OC(C)=O)C3=C(C)C[C@H](OC(=O)/C=C/c4ccccc4)[C@@H]([C@@H](OC(C)=O)[C@H]12)C3(C)C	label 0
C=C1[C@@H](OC(C)=O)C[C@H](O)[C@@]2(C)C[C@H](OC(C)=O)C3=C(C)C[C@H](OC(=O)C(C)C(C)O)[C@@H]([C@@H](OC(C)=O)[C@H]12)C3(C)C (stereo partly specified)	label 0
C=C1[C@@H](OC(C)=O)CC[C@@]2(C)C[C@H](OC(C)=O)C3=C(C)C[C@H](OC(=O)CCC)[C@@H]([C@@H](OC(C)=O)[C@H]12)C3(C)C	label 1
C=C1[C@@H](OC(C)=O)C[C@H](OC(=O)/C=C/c2ccccc2)[C@@]2(C)C[C@H](OC(C)=O)C3=C(C)C[C@H](OC(=O)C(C)C(C)O)[C@@H]([C@@H](OC(C)=O)[C@H]12)C3(C)C (stereo partly specified)	label 1
C=C1[C@@H](OC(C)=O)CC[C@@]2(C)[C@@H](OC(=O)/C=C/c3ccccc3)[C@H](OC(C)=O)C3=C(C)C[C@H](OC(C)=O)[C@@H]([C@@H](OC(C)=O)[C@H]12)C3(C)C	label 0
C=C1[C@@H](OC(C)=O)CC[C@@]2(C)C[C@H](OC(C)=O)C3=C(C)C[C@H](OC(=O)C(C)C(C)O)[C@@H]([C@@H](OC(C)=O)[C@H]12)C3(C)C (stereo partly specified) [YUNNANXANE]	label 1
C=C1[C@@H](OC(C)=O)CC[C@@]2(C)C[C@H](OC(=O)/C=C/c3ccccc3)C3=C(C)C[C@H](OC(C)=O)[C@@H]([C@@H](OC(C)=O)[C@H]12)C3(C)C	label 0
C=C1[C@@H](OC(C)=O)CC[C@@]2(C)[C@@H](O)[C@H](OC(C)=O)C3=C(C)C[C@H](OC(C)=O)[C@@H]([C@@H](OC(C)=O)[C@H]12)C3(C)C	label 0
C=C1[C@@H](OC(C)=O)CC[C@@]2(C)C[C@H](OC(C)=O)C3=C(C)C[C@H](OC(=O)C(C)CC)[C@@H]([C@@H](OC(C)=O)[C@H]12)C3(C)C (stereo partly specified)	label 1
C=C1[C@@H](OC(C)=O)CC[C@@]2(C)C[C@H](OC(C)=O)C3=C(C)C[C@H](O)[C@@H]([C@@H](OC(C)=O)[C@H]12)C3(C)C	label 1
C=C1[C@@H](OC(C)=O)CC[C@@]2(C)C[C@H](O)C3=C(C)C[C@H](OC(=O)/C=C/c4ccccc4)[C@@H]([C@@H](OC(C)=O)[C@H]12)C3(C)C	label 1
C=C1[C@@H](OC(=O)/C=C/c2ccccc2)CC[C@@]2(C)C[C@H](OC(C)=O)C3=C(C)C[C@H](OC(C)=O)[C@@H]([C@@H](OC(C)=O)[C@H]12)C3(C)C	label 0
